Target: recombinant Human Phosphodiesterase B2 (PDE4B2) (Homo sapiens, UniProt Q07343)
Sequence (Q07343 1-564 isoform Q07343-2): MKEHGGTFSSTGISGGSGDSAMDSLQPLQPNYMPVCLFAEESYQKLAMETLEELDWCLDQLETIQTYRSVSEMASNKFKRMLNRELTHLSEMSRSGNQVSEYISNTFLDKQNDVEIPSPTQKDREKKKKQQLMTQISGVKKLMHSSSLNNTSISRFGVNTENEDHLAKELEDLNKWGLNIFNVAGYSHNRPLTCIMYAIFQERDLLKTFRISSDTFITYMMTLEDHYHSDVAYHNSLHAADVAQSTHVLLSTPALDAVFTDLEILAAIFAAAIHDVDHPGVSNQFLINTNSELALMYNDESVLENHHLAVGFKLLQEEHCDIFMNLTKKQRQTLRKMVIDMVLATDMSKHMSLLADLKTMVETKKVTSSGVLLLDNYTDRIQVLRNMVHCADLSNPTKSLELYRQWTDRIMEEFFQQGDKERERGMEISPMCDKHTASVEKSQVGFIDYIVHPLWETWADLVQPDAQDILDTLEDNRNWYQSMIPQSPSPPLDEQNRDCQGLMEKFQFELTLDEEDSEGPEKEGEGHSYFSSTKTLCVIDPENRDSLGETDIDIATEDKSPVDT
Assay: Human Phosphodiesterase B2 Alpha Screen Assay
Details: cAMP substrate, Alpha Screen cAMP kit, 60 minutes at room temperature
For each record, write down the corresponding IC50.
Give bare numbers, in nM.

smi: COC(=O)c1cccc(-n2c(=O)n([C@H]3CC[C@@H](NC(=O)[C@@H]4CCCN4C)CC3)c(=O)c3cc(F)cnc32)c1
study.system: recombinant Human Phosphodiesterase B2 (PDE4B2) (Homo sapiens, UniProt Q07343)
IC50 (nM): 14.5
--
smi: COc1cccc(O)c1C(=O)N[C@H]1CC[C@@H](n2c(=O)c3cc(F)cnc3n(-c3ccc(F)c(F)c3)c2=O)CC1
study.system: recombinant Human Phosphodiesterase B2 (PDE4B2) (Homo sapiens, UniProt Q07343)
IC50 (nM): 2.1
--
smi: O=C(Cc1cccc(O)c1)N[C@H]1CC[C@@H](n2c(=O)c3cc(F)cnc3n(-c3ccc(F)c(F)c3)c2=O)CC1
study.system: recombinant Human Phosphodiesterase B2 (PDE4B2) (Homo sapiens, UniProt Q07343)
IC50 (nM): 0.9

Hey, can you go through the list below and give me IC50 for every item?
1. COc1cc(C(=O)N[C@H]2CC[C@@H](n3c(=O)c4cc(F)cnc4n(-c4ccc(F)c(F)c4)c3=O)CC2)ccc1O
2. COC(=O)CCC(=O)N[C@H]1CC[C@@H](n2c(=O)c3cc(F)cnc3n(-c3ccc(F)c(F)c3)c2=O)CC1
3. O=C(N[C@H]1CC[C@@H](n2c(=O)c3cc(F)cnc3n(-c3ccc(F)c(F)c3)c2=O)CC1)c1ncccc1O
4. COC(=O)CCCC(=O)N[C@H]1CC[C@@H](n2c(=O)c3cc(F)cnc3n(-c3ccc(F)c(F)c3)c2=O)CC1

*A*
1.5
3.8
3.4
1.7

---

Molecular target: recombinant Human Phosphodiesterase B2 (PDE4B2) (Homo sapiens)
Experiment: Human Phosphodiesterase B2 Alpha Screen Assay
Conditions: cAMP substrate, Alpha Screen cAMP kit, 60 minutes at room temperature
measured.metric: IC50 (nM)
One number for each entry, in nM.

Hey, can you go through the list below and give me IC50 for every item?
1. COc1cccc(C(=O)N[C@H]2CC[C@@H](n3c(=O)c4cc(F)cnc4n(-c4ccc(F)c(F)c4)c3=O)CC2)c1O
2. N#Cc1ccc(C(=O)N[C@H]2CC[C@@H](n3c(=O)c4cc(F)cnc4n(-c4ccc(F)c(F)c4)c3=O)CC2)cc1
3. CS(=O)(=O)c1cccc(-n2c(=O)n([C@H]3CC[C@@H](NC(=O)[C@@H](O)c4ccccc4)CC3)c(=O)c3cc(F)cnc32)c1
4. O=C(N[C@H]1CC[C@@H](n2c(=O)c3cc(F)cnc3n(-c3ccc(F)c(F)c3)c2=O)CC1)c1cc2nccnc2s1
5. Cc1c(O)cccc1C(=O)N[C@H]1CC[C@@H](n2c(=O)c3cc(F)cnc3n(-c3ccc(F)c(F)c3)c2=O)CC1
6. CSc1cccc(-n2c(=O)n([C@H]3CC[C@@H](NC(=O)C4CCCC4)CC3)c(=O)c3cc(F)cnc32)c1

*A*
[1.8, 10.8, 36.4, 3.89, 3.2, 3.9]

---

For each record, write down the corresponding IC50.
Target: recombinant Human Phosphodiesterase B2 (PDE4B2) (Homo sapiens)
Assay: Human Phosphodiesterase B2 Alpha Screen Assay
Conditions: cAMP substrate, Alpha Screen cAMP kit, 60 minutes at room temperature
Numbers only, in nM.

Study these solved cases before continuing.
compound: O=C(N[C@H]1CC[C@@H](n2c(=O)c3cc(F)cnc3n(-c3ccc(F)c(F)c3)c2=O)CC1)c1ccc(Cl)cc1O [Example 18]
IC50 / nM: 2.7

compound: COC(=O)c1cccc(-n2c(=O)n([C@H]3CC[C@@H](NC(=O)C4CCC4)CC3)c(=O)c3cc(F)cnc32)c1 [Example 61]
IC50 / nM: 5.2

compound: C=Cc1ccc(C(=O)N[C@H]2CC[C@@H](n3c(=O)c4cc(F)cnc4n(-c4ccc(F)c(F)c4)c3=O)CC2)cc1 [Example 101]
IC50 / nM: 2.05

*Q* Identify measured IC50 associated with O=C(CCc1cccc(O)c1)N[C@H]1CC[C@@H](n2c(=O)c3cc(F)cnc3n(-c3ccc(F)c(F)c3)c2=O)CC1 [Example 31]
*A* 1.5
